Kindly state Plant response rating, Wheat for each of the entries shown.
# Tested on: wheat
# method.summary: Test C postemergence herbicide test
# Type: in vivo, Triticum aestivum
# experimental.conditions: postemergence, 125 g ai/ha; scale 0 to 100
Give bare numbers.

# per-item lookup of Plant response rating, Wheat; items listed below
1. CCOC(=O)c1cccc(NC(=O)c2cc(C3(C)CC3)nn2CC)c1
2. CCn1nc(C(C)(C)C)cc1C(=O)Nc1cc(OC(F)(F)F)ccc1F
3. C=CCN(CC=C)C(=O)c1cccc(NC(=O)c2nn(C(C)(C)C)nc2CC)c1
4. CCNC(=O)c1cccc(NC(=O)c2cc(C(C)(C)C)nn2CC)n1

Result:
1: 45; 2: 25; 3: 25; 4: 30

====

# System: rice
# method.summary: Test B flooded paddy test
# Type: in vivo, Oryza sativa
# experimental.conditions: 1000 g ai/ha, scale 0 to 100 (0 no effect, 100 complete control)
result.type: Rice plant response rating
Give bare numbers.

Before answering, review these 3 worked examples.
CCN(CC)C(=O)c1ccc(F)c(NC(=O)C2CC(C(C)(C)C)=NN2CC)c1 (racemic) :: 70
CCNC(=O)c1cncc(NC(=O)c2cc(C(C)(C)C)nn2CC)c1 :: 70
C#CCNC(=O)c1cc(NC(=O)c2cc(C(C)(C)C)nn2CC)ccn1 :: 10

The record that follows has no Rice plant response rating shown yet.
Request: Write down Rice plant response rating measured for item CCn1nc(C(C)(C)C)cc1C(=O)Nc1cc(C(=O)NC)c(F)cc1F
Result: 40

====

Kindly state Cocklebur plant response rating for each of the entries shown.
# System: cocklebur
# method.summary: Test B pre-/postemergence herbicide test
# Type: in vivo, Xanthium strumarium
# experimental.conditions: postemergence, 500 g ai/ha; visual rating, scale 0 (no effect) to 100 (complete control)
# Protocol: […] At the same time, plants selected from these crop and weed species and also blackgrass (Alopecurus myosuroides Huds.), wheat (Triticum aestivum L.) and wild oat (Avena fatua L.) were treated with postemergence applications of test chemicals formulated in the same manner. […] Treated plants and controls were maintained in a greenhouse for 13 to 15 days, after which time all species were compared to controls and visually evaluated. […]
Numbers only.

CCN(CC)C(=O)c1cccc(NC(=O)c2nn(C(C)(C)C)cc2Cl)c1 :: 0

# per-item lookup of Cocklebur plant response rating; items listed below
1. CCn1nc(C(C)(C)C)cc1C(=O)Nc1cc(C(=O)N(C)OC)ccc1F
2. CCn1nc(C(C)(C)C)cc1C(=O)Nc1cncc(C(=O)N2CC=CC2)c1
3. CC(=O)c1cccc(NC(=O)c2cc(C(C)(C)C)nn2CC(F)(F)F)c1
4. Cc1nn(C(C)(C)C)cc1C(=O)Nc1cccc(OC(C)C)c1
5. CCOc1cccc(NC(=O)c2cc(C(C)(C)C)nn2CC)c1

Result:
1. 80
2. 20
3. 100
4. 10
5. 100

# per-item lookup of Cocklebur plant response rating; items listed below
1. CCn1nc(C(C)(C)C)cc1C(=O)Nc1ccnc(C(=O)N(C)C)c1
2. CCc1nc(C(C)(C)C)sc1C(=O)Nc1cccc(C(=O)N(C)CC)c1

Result:
1. 0
2. 70

====

# System: bermudagrass
# method.summary: Test C pre-/postemergence herbicide test
# Type: in vivo, Cynodon dactylon
# experimental.conditions: 250 g ai/ha; scale 0-100; preemergence
# From the text: […]
result.type: Plant response rating, Bermudagrass
Give bare numbers.

CCNC(=O)c1ccc(F)c(NC(=O)c2cc(C3(C)CC3)nn2CC)c1 [Compound 300] :: 100
C=CCNC(=O)c1cccc(NC(=O)c2cc(C(C)(C)C)nn2C)n1 [Compound 318] :: 90
CCc1nn(C(C)C)nc1C(=O)Nc1cccc(C(=S)N(C)C)c1 [Compound 409] :: 85
CCc1nc(C(C)(C)C)sc1C(=O)Nc1cccc(C(=O)N(CC)CC)c1 [Compound 205] :: 100
CCN(CC)C(=O)c1cccc(NC(=O)c2cc(C(C)(C)C)nn2C)n1 [Compound 314] :: 60
CCn1nc(C(C)(C)C)cc1C(=O)Nc1cc(C(=O)N(C)OC)ccc1F [Compound 244] :: 100

The record that follows has no Plant response rating, Bermudagrass shown yet.
Request: State Plant response rating, Bermudagrass on bermudagrass. Entry: CCN1N=C(C(C)(C)C)CC1C(=O)Nc1cc(C(=O)N2CC=CC2)ccc1F (racemic) [Compound 310]
Result: 100

Entry source: patent US20060069132A1
